Values compiled from PubChem BioAssay.

molecular target: Calmodulin-1 (Homo sapiens) (UniProt P0DP23); assay: CALM1 binders on microarrays, EGTA buffer, profiling panel, biochemical, small-molecule microarray, Cy5-labelled CALM1 (AID 1111); settings: Cy5-CALM1 binding fluorescence, higher = more signal;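 note: labelled calmodulin applied in Tris saline Tween buffer holding calcium plus EGTA and DTT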
measured.quantity: composite z-score
Please respond with just the number, no unit label.

Example molecules with recorded composite z-score:
{"molecule": "COC(=O)[C@@]1(Cc2ccc(F)cc2)[C@H]2c3cc(C(=O)N4CCCC4)n(CCSCCO)c3C[C@H]2CN1C(=O)c1ccccc1", "composite z-score": 1.34}
{"molecule": "CCCCC(=C=CC[C@@H](O)c1ccc(OCCO)cc1)CCO", "composite z-score": -0.45}
{"molecule": "CC[C@H]1C2=C3C(CC[C@H]4C(OCc5ccc(F)cc5C(F)(F)F)OC[C@](C)([C@@H]34)N(C(=O)OC(C)(C)C)C2)C(COC(C)=O)C1COC(C)=O (some centres undefined)", "composite z-score": 1.97}

Using the record for C=CC[C@H](OC(=O)Nc1ccc(SC)cc1)c1ccc(O)c(F)c1 , report its composite z-score. -0.652

Quick one: composite z-score of O=C1OC[C@@H](c2ccccc2)n2cc(/C=C/c3ccccc3)cc21 ? -0.638

Consider the molecule C=CCNC(=O)[C@H]1[C@@H]2C(=O)O[C@@H](c3ccccc3)[C@@H](c3ccccc3)N2[C@@H](c2ccc(O)cc2)[C@]12C(=O)Nc1ccc(C#CCC(C(=O)OC)C(=O)OC)cc12 and give its measured composite z-score. -0.416

Please give the measured composite z-score for this molecule: C=C(C(=O)CC[C@@H](OC(=O)c1ccccc1-c1ccccc1C(=O)O)c1ccc(CO)o1)C(C)C -0.236

Entry under review: CC1CC/C=C\[C@H]2OC34C=CCN(CCN5CCOCC5)C(=O)[C@H]3N(C(CO)C(C)C)C(=O)[C@@H]4C2C(=O)O1 (some centres undefined) . Reported composite z-score? -0.388

Given COc1ccc(C(O)C2C=CC3C(=O)N(c4ccccc4)C(=O)C3N2Nc2ccccc2F)c2ccccc12 (centres undefined) , state its recorded composite z-score. 2.6

State the recorded composite z-score for this entry: C[C@]1(C(=O)NC2CC2)c2ccccc2C(=O)N(Cc2cc(F)cc(C(F)(F)F)c2)[C@H]1c1ccc(CO)cc1 -0.448

Could you share which composite z-score value was measured for C=C(COC)/C(=C/C[C@@H](OC(=O)c1ccncc1)c1ccccc1OCCO)c1cnc2ccccc2c1 ? 0.528
